Biological target: PIKFYVE (Homo sapiens, UniProt Q9Y2I7)
Sequence (Q9Y2I7 whole entry): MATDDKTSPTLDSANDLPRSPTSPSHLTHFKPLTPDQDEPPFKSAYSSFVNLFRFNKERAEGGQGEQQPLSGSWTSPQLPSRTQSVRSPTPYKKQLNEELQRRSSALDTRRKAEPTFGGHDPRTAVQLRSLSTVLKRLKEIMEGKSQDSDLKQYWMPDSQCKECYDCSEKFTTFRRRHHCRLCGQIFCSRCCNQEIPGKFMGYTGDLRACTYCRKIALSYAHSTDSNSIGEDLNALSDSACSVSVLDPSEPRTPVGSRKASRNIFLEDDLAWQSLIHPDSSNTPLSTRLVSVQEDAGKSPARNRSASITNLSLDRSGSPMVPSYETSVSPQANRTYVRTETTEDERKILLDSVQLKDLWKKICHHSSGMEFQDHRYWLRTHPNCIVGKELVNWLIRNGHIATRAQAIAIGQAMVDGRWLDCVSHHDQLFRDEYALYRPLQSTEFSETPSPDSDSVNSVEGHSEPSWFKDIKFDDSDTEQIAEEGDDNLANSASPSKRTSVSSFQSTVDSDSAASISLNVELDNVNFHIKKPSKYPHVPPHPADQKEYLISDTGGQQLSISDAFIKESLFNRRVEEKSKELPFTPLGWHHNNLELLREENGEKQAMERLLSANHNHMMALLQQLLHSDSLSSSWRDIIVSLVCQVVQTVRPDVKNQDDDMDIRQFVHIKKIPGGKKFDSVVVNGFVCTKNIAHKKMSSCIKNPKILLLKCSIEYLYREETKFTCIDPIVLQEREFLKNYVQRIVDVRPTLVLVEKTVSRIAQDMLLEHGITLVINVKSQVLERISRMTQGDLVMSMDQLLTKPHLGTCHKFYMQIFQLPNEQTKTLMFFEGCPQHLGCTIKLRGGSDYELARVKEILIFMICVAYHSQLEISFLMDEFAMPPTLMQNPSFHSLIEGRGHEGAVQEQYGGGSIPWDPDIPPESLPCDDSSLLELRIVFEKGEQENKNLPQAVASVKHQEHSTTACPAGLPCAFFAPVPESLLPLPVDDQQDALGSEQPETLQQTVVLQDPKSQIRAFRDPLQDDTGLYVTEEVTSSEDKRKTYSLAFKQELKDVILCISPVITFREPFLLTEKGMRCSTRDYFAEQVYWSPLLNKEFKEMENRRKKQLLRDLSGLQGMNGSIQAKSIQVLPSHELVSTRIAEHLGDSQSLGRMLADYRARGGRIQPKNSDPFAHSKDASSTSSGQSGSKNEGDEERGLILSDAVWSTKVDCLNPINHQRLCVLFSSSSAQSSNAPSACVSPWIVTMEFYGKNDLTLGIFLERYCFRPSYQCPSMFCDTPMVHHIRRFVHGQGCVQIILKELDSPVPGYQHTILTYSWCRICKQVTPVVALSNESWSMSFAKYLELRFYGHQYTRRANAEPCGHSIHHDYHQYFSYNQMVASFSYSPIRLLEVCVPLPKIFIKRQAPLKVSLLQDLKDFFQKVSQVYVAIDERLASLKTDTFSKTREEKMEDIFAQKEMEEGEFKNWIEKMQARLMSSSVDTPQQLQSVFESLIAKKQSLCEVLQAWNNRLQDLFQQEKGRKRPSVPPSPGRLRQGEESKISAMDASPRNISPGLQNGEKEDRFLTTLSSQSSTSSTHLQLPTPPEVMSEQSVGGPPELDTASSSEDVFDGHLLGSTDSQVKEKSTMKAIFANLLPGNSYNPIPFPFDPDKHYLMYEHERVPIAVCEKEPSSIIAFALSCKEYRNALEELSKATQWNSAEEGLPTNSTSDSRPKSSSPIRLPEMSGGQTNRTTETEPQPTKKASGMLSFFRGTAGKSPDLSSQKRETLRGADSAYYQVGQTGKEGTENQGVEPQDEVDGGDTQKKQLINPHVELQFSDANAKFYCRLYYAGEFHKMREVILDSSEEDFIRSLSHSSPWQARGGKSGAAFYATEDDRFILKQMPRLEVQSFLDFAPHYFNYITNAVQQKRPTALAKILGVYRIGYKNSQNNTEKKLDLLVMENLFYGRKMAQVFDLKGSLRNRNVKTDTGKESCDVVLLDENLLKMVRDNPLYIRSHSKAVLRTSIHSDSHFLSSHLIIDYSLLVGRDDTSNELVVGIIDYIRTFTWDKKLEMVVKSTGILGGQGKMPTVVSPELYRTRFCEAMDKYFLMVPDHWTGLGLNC
Experiment: PIKFYVE assay (luciferase ADP-Glo kinase assay, Promega)
Type: biochemical
Conditions: Table 2
Observable: IC50

[[record]]
compound = "Cn1cc(CCOc2nc(N3CCOCC3)cc(-n3ccc(-c4cccc(CO)c4)n3)n2)cn1"
observable = "IC50"
value = "< 5 nM"

[[record]]
compound = "Cc1cccc(-c2ccn(-c3cc(N4CCOCC4)nc(OCCc4cnn(C)c4)n3)n2)c1"
observable = "IC50"
value = "< 5 nM"

[[record]]
compound = "Cc1cccc(-c2ccn(-c3cc(N4CCOCC4)nc(C)n3)n2)c1"
observable = "IC50"
value = "< 5 nM"

[[record]]
compound = "Cn1cc(C(O)C#Cc2nc(N3CCOCC3)cc(-n3ccc(-c4ccccc4)n3)n2)cn1 (stereo not drawn)"
observable = "IC50"
value = "< 5 nM"

[[record]]
compound = "Cc1cccc(-c2ccn(-c3cc(N4CCOCC4)nc(OC[C@@H](O)c4ccccc4)n3)n2)c1 (single isomer, unassigned)"
observable = "IC50"
value = "< 5 nM"

[[record]]
compound = "Cc1cccc(-c2ccn(-c3cc(N4CCOCC4)nc(OCCc4cnn(CCN(C)C)c4)n3)n2)c1"
observable = "IC50"
value = "< 5 nM"

[[record]]
compound = "CC(=O)c1nc(N2CCOCC2)cc(-n2ccc(-c3cccc(C)c3)n2)n1"
observable = "IC50"
value = "< 5 nM"

[[record]]
compound = "COC(Cc1ccnn1C)c1nc(N2CCOCC2)cc(-n2ccc(-c3ccccc3)n2)n1 (stereo not drawn)"
observable = "IC50"
value = "< 5 nM"


We now examine a further compound.
Request: Endpoint output: IC50 of Cc1cccc(-c2ccn(-c3cc(N4CCOCC4)nc(C(F)(F)F)n3)n2)c1 . Value?
Response: 5 to 100 nM
